Please respond with reported protein stability index for every item in the list.
B1: MFF (parent)
chain: MAEISRIQYEMEYTEGISQRMRVP

Variants of: B1
ASSAY_PROTOCOL: protein stability index of a GFP-peptide fusion (GPS, HEK-293T) (PSI 1-6); higher = more stable;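 also: lentivirally expressed fusions sorted by FACS into six bins by GFP to DsRed ratio, PSI derived from sequencing read proportions per bin multiplied by bin number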
MEASUREMENT_CONDITIONS: c terminus: a fixed tail appended
Numbers only.

1. MAEISRIQYEMEYTEGIEQRMRVP = 3.04
2. CAEISRIQYEMEYTEGISQRMRVP = 1.85
3. MAEISRIIYEMEYTEGISQRMRVP = 2.52
4. MAEISRIQYEMEYTEGNSQRMRVP = 3.3
5. MAEISRIQYEMEATEGISQRMRVP = 2.73

Could I get protein stability index for every one of these entries?
1. MWEISRIQYEMEYTEGISQRMRVP
2. MAEISRIQYEMEYKEGISQRMRVP
3. MAEISRIQYAMEYTEGISQRMRVP
4. MAEISRIQYEMEYTEGISQRMRVE
5. MAEISRIQYEMEYMEGISQRMRVP
6. MAEISRIQYEMEYHEGISQRMRVP
7. MAEISRPQYEMEYTEGISQRMRVP
8. MDEISRIQYEMEYTEGISQRMRVP

1. 1.51
2. 3.28
3. 2.15
4. 2.74
5. 2.2
6. 2.5
7. 3.37
8. 2.83
